Biological target: TEAD2 TAZ (amino acids 13-57) (Homo sapiens, UniProt Q15562)
Sequence (Q15562 217-447): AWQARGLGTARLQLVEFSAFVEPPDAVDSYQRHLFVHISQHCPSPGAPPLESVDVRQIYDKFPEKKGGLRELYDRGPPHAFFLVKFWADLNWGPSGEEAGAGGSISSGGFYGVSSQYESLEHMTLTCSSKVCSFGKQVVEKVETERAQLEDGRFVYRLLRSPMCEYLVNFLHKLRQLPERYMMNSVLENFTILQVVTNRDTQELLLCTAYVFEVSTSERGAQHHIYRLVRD
Experiment: TEAD2-TAZ HTRF (TR-FRET) protein-protein interaction assay
Conditions: TEAD2-TAZ HTRF, TR-FRET 665 nm/615 nm; read-out: TEAD2 TAZ HTRF combined: EC50
pEC50: −log10 of the molar value.

{"compound": "O=C(c1c(-c2ncco2)nn2c(=O)cc(-c3ccc(C4CCCCC4)cc3)[nH]c12)N1CC(CF)C1", "measurement_target": "TEAD2 TAZ (amino acids 13-57) (Homo sapiens, UniProt Q15562)", "pEC50": 8.00}
{"compound": "Cc1cnc(-c2nn3c(=O)cc(-c4ccc(C5CCCCC5)cc4)[nH]c3c2C(=O)N2CC(CF)C2)cn1", "measurement_target": "TEAD2 TAZ (amino acids 13-57) (Homo sapiens, UniProt Q15562)", "pEC50": 7.52}
{"compound": "COc1nccnc1-c1nn2c(=O)cc(-c3ccc(C4CCCCC4)cc3)[nH]c2c1C(=O)N1CC(CF)C1", "measurement_target": "TEAD2 TAZ (amino acids 13-57) (Homo sapiens, UniProt Q15562)", "pEC50": 7.70}
{"compound": "C[C@@H]1[C@H](CF)CN1C(=O)c1c(-c2ncccn2)nn2c(=O)cc(-c3ccc(C4CCCCC4)cc3)[nH]c12 (single isomer, unassigned) [Isomer A, Example 40]", "measurement_target": "TEAD2 TAZ (amino acids 13-57) (Homo sapiens, UniProt Q15562)", "pEC50": 8.00}
{"compound": "C[C@H]1[C@@H](CF)CN1C(=O)c1c(-c2cnccn2)nn2c(=O)cc(-c3ccc(CC4CCCC4)cc3)[nH]c12 (single isomer, unassigned) [Isomer B, Example 44]", "measurement_target": "TEAD2 TAZ (amino acids 13-57) (Homo sapiens, UniProt Q15562)", "pEC50": 8.00}
{"compound": "Cc1nccnc1-c1nn2c(=O)cc(-c3ccc(CC4CCCC4)cc3)[nH]c2c1C(=O)N1C[C@H](CF)[C@@H]1C (single isomer, unassigned) [Isomer B, Example 42]", "measurement_target": "TEAD2 TAZ (amino acids 13-57) (Homo sapiens, UniProt Q15562)", "pEC50": 8.00}
{"compound": "CN(C)C(=O)c1nn2c(=O)cc(-c3ccc(CC4CCCC4)cc3)[nH]c2c1C(=O)N1CC(CF)C1", "measurement_target": "TEAD2 TAZ (amino acids 13-57) (Homo sapiens, UniProt Q15562)", "pEC50": 8.00}
{"compound": "O=C(c1nn2c(=O)cc(-c3ccc(C4CCCCC4)cc3)[nH]c2c1C(=O)N1CC(CF)C1)N1CCCC1", "measurement_target": "TEAD2 TAZ (amino acids 13-57) (Homo sapiens, UniProt Q15562)", "pEC50": 7.70}
{"compound": "CC(CO)c1nn2c(=O)cc(-c3ccc(C4CCCCC4)cc3)[nH]c2c1C(=O)N1CC[C@@H](C#N)C1 (single isomer, unassigned) [Final product obtained using Enantiomer A from Step 4, Example 54]", "measurement_target": "TEAD2 TAZ (amino acids 13-57) (Homo sapiens, UniProt Q15562)", "pEC50": 7.40}
{"compound": "N#Cc1nccnc1-c1nn2c(=O)cc(-c3ccc(C4CCCCC4)cc3)[nH]c2c1C(=O)N1CC(CF)C1", "measurement_target": "TEAD2 TAZ (amino acids 13-57) (Homo sapiens, UniProt Q15562)", "pEC50": 7.70}
{"compound": "CC(C)c1ccc(COc2cc(=O)n3nc(-c4cnccn4)c(C(=O)N4CC(CF)C4)c3[nH]2)cc1", "measurement_target": "TEAD2 TAZ (amino acids 13-57) (Homo sapiens, UniProt Q15562)", "pEC50": 7.70}

* * *

Target: TEAD2 TAZ (amino acids 13-57) (Homo sapiens, UniProt Q15562)
Test: TEAD2-TAZ HTRF (TR-FRET) protein-protein interaction assay
Assay type: binding
Details: TEAD2, TAZ peptide, HTRF
Values of TEAD2 TAZ HTRF combined: Max % Inhibition strictly less than 70% map to yes (1), and values of at least 70% map to no (0).

{"compound": "Cc1c(-c2nn3c(=O)cc(-c4ccc(C5CCCCC5)cc4)[nH]c3c2C(=O)N2CC(CF)C2)ncn1C [Compound 30]", "label_class": "yes (1)"}
{"compound": "Cc1nccnc1-c1nn2c(=O)cc(-c3ccc(O[C@@H](c4ccccc4)C(F)(F)F)cc3)[nH]c2c1C(=O)N1CC(CF)C1 [Compound 67]", "label_class": "no (0)"}
{"compound": "C[C@@H](CO)c1nn2c(=O)cc(-c3ccc(C4CCCCC4)cc3)[nH]c2c1C(=O)N1CC(CF)C1 (single isomer, unassigned) [Enantiomer B, Example 55]", "label_class": "yes (1)"}
{"compound": "Cn1cnc(-c2nn3c(=O)cc(-c4ccc(C5CCCCC5)cc4)[nH]c3c2C(=O)N2CC(CF)C2)c1 [Compound 32]", "label_class": "yes (1)"}
{"compound": "Cc1nccnc1-c1nn2c(=O)cc(-c3ccc(C4CCCC4)cc3)[nH]c2c1C(=O)N1C[C@H](CF)[C@@H]1C [Compound 69]", "label_class": "no (0)"}

* * *

Molecular target: TEAD4 TAZ (amino acids 13-57) (Homo sapiens)
Sequence (Q15561 217-434 limits assumed): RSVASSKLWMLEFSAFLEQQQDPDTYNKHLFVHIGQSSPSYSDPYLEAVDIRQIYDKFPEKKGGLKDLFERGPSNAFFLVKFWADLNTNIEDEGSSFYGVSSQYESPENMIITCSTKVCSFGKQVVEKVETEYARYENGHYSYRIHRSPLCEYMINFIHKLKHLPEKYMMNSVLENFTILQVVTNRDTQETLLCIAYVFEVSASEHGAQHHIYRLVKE
Experiment: TEAD4-TAZ HTRF (TR-FRET) protein-protein interaction assay
Conditions: TEAD4-TAZ HTRF, TR-FRET 665 nm/615 nm; read-out: TEAD4 TAZ HTRF combined: EC50
pEC50: −log10 of the molar value.
Below, each entry is listed with its recorded pEC50.
experimental_readout: pEC50

{"compound": "CCN(C)C(=O)c1nn2c(=O)cc(-c3ccc(C4CCCCC4)cc3)[nH]c2c1C(=O)N1CC(CF)C1", "experimental_readout": "pEC50", "result_value": 6.85}
{"compound": "O=C(c1c(-c2ncccn2)nn2c(=O)cc(-c3ccc(C4(C5CCCC5)CC4)cc3)[nH]c12)N1CC(CF)C1", "experimental_readout": "pEC50", "result_value": 7.22}
{"compound": "C[C@@H](CO)c1nn2c(=O)cc(-c3ccc(C4CCCCC4)cc3)[nH]c2c1C(=O)N1CC(CF)C1 (single isomer, unassigned) [Enantiomer B, Example 55]", "experimental_readout": "pEC50", "result_value": 6.85}
{"compound": "Cc1nccnc1-c1nn2c(=O)cc(-c3ccc(-c4ccccc4)cc3)[nH]c2c1C(=O)N1CC(CF)C1", "experimental_readout": "pEC50", "result_value": 6.29}
{"compound": "Cc1nccnc1-c1nn2c(=O)cc(-c3ccc(C4CCCCC4)c(F)c3)[nH]c2c1C(=O)N1CC(CF)C1", "experimental_readout": "pEC50", "result_value": 7.52}
{"compound": "O=C(c1c(-c2cnccn2)nn2c(=O)cc(-c3ccc(C4CCCCC4)c(F)c3)[nH]c12)N1CC(CF)C1", "experimental_readout": "pEC50", "result_value": 7.30}
{"compound": "Cc1nccnc1-c1nn2c(=O)cc(-c3ccc(O[C@H](c4ccccc4)C(F)(F)F)cc3)[nH]c2c1C(=O)N1CC(CF)C1", "experimental_readout": "pEC50", "result_value": 5.31}
{"compound": "CCc1ccnc(-c2nn3c(=O)cc(-c4ccc(C5CCCCC5)cc4)[nH]c3c2C(=O)N2CC(CF)C2)n1", "experimental_readout": "pEC50", "result_value": 6.74}
{"compound": "CC(C)c1ccc(COc2cc(=O)n3nc(-c4cnccn4)c(C(=O)N4CC(CF)C4)c3[nH]2)cc1", "experimental_readout": "pEC50", "result_value": 6.82}
{"compound": "Cc1ccnc(-c2nn3c(=O)cc(-c4ccc(C5CCCCC5)cc4)[nH]c3c2C(=O)N2CC(CF)C2)c1", "experimental_readout": "pEC50", "result_value": 7.70}
{"compound": "C[C@H](CO)c1nn2c(=O)cc(-c3ccc(C4CCCCC4)cc3)[nH]c2c1C(=O)N1CC(CF)C1 (single isomer, unassigned) [Enantiomer A, Example 55]", "experimental_readout": "pEC50", "result_value": 6.34}
{"compound": "Cc1ccnc(-c2nn3c(=O)cc(-c4ccc(C5CCCCC5)cc4)[nH]c3c2C(=O)N2CC(CF)C2)c1C", "experimental_readout": "pEC50", "result_value": 7.70}
{"compound": "Cc1cncc(-c2nn3c(=O)cc(-c4ccc(C5CCCCC5)cc4)[nH]c3c2C(=O)N2CC(CF)C2)n1", "experimental_readout": "pEC50", "result_value": 6.92}
{"compound": "O=C(c1c(-c2ccccn2)nn2c(=O)cc(-c3ccc(C4CCCCC4)cc3)[nH]c12)N1CC(CF)C1", "experimental_readout": "pEC50", "result_value": 7.70}

* * *

Listing of recorded pEC50 by entry.
Molecular target: TEAD4 YAP50-100 (Homo sapiens, UniProt Q15561)
Assay: TEAD4-YAP HTRF (TR-FRET) protein-protein interaction assay
Conditions: TEAD4, YAP peptide 50-100, HTRF; read-out: TEAD4 YAP50-100 HTRF combined: EC50
pEC50: −log10 of the molar value.

{"compound_string": "CC(C)(C)c1ccc(COc2cc(=O)n3nc(-c4cnccn4)c(C(=O)N4CC(CF)C4)c3[nH]2)cc1", "measurement_target": "TEAD4 YAP50-100 (Homo sapiens, UniProt Q15561)", "pEC50": 7.30}
{"compound_string": "N#Cc1nccnc1-c1nn2c(=O)cc(-c3ccc(C4CCCCC4)cc3)[nH]c2c1C(=O)N1CC(CF)C1", "measurement_target": "TEAD4 YAP50-100 (Homo sapiens, UniProt Q15561)", "pEC50": 6.33}
{"compound_string": "CCn1cnc(-c2nn3c(=O)cc(-c4ccc(C5CCCCC5)cc4)[nH]c3c2C(=O)N2CC(CF)C2)c1", "measurement_target": "TEAD4 YAP50-100 (Homo sapiens, UniProt Q15561)", "pEC50": 6.11}
{"compound_string": "COc1ccnc(-c2nn3c(=O)cc(-c4ccc(C5CCCCC5)cc4)[nH]c3c2C(=O)N2CC(CF)C2)n1", "measurement_target": "TEAD4 YAP50-100 (Homo sapiens, UniProt Q15561)", "pEC50": 7.22}
